Catalogue of molecules with associated IC50
# experimentalTarget: UniProt:Q7Z3E1
# Sequence (Q7Z3E1 whole entry): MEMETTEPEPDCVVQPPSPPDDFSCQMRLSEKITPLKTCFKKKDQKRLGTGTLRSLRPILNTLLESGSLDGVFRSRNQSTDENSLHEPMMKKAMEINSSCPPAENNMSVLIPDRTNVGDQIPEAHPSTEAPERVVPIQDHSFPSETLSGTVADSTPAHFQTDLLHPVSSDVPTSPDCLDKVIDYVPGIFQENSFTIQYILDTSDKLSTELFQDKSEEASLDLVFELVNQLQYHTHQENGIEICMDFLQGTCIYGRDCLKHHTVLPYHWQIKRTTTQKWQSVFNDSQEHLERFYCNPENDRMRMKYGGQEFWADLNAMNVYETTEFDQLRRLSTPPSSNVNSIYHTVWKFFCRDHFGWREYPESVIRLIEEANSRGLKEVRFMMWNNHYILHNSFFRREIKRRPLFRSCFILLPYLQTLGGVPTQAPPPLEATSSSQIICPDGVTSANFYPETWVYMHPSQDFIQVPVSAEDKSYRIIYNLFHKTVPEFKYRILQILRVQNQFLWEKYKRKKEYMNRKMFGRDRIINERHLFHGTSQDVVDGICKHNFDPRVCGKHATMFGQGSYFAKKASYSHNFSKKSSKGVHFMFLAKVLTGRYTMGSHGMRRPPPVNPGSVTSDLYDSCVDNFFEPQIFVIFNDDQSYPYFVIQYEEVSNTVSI
# assayInfo: TR-FRET assay: displacement of biotinylated Probe A from the TIPARP active site (Enzymatic Assay for Inhibition of PARP7)
# measurementParameters: TIPARP 6 nM, Probe A 2 nM, 25° C.

In the examples that follow, each entry is paired with its recorded IC50.
molecule | IC50
COC[C@@H](CO[C@H]1CCN(C2CCN(c3ccc(C#N)cn3)CC2)C1=O)Nc1cn[nH]c(=O)c1C(F)(F)F [Example 17A] | 100 to 1000 nM
C[C@@H](CO[C@@H]1CCN(C2CCN(c3ccc(C#N)cn3)CC2)C1=O)Nc1cn[nH]c(=O)c1C(F)(F)F [Example 14B] | < 100 nM

Task item: Return the recorded IC50 value; entry: COC[C@@H](CO[C@@H]1CCN(C2CCN(c3ccc(C#N)cn3)CC2)C1=O)Oc1cn[nH]c(=O)c1Br [Example 55B]
Reply: < 100 nM

Task item: Return the recorded IC50 value; entry: C[C@@H](CO[C@H]1CCN(C2CCN(c3ncc(C(F)(F)F)cn3)CC2O)C1=O)Oc1cn[nH]c(=O)c1C(F)(F)F (stereo partly drawn) [Example 64A]
Reply: < 100 nM

Task item: Return the recorded IC50 value; entry: C[C@@H](CO[C@H]1CCN(C2CCN(c3cnc(C(F)(F)F)cn3)CC2)C1=O)Oc1cn[nH]c(=O)c1C(F)(F)F [Example 31A]
Reply: < 100 nM

Task item: Return the recorded IC50 value; entry: C[C@@H](CO[C@@H]1CCN(C2CCN(c3ncc(C(F)(F)F)cn3)CC2C#N)C1=O)Nc1cn[nH]c(=O)c1C(F)(F)F (stereo partly drawn) [Example 69]
Reply: < 100 nM

Cited source for all entries: patent US11691969B2
